assay: CEETOX_H295R_OHPROG: CeeTox H295R High-throughput Steroidogenesis Assay for OH-Progesterone (OHPROG) (AID 2283435); conditions: actives raise or lower the signal
The source made the active and inactive calls. The calls were made as follows: active = hit-call score of the fitted dose curve at least 0.9, where 1 is the maximum; inactive = score below 0.9.
Select the matching outcome among YES (active), NO (inactive)

> print(dat)
                                   molecule  label
1  Fc1ccccc1[C@@H](F)COC1CCC(Nc2ncnc3[nH]ncc23)CC1 (stereo partly specified)    YES
2  CCOC(=O)c1ccc(C2CCC(NC[C@H](O)COc3ccc(O)c(NS(C)(=O)=O)c3)CC2)cc1 (stereo partly specified)    YES
3  Cn1c(=O)cc(Oc2ccc(F)cc2F)c2cnc(NCC(C)(C)O)nc21     NO
4  CNS(=O)(=O)c1cc(C(=O)N2CCC(CCN3C4CCC3CC(n3c(C)nc5ccccc53)C4)(c3cccc(F)c3)CC2)c(Cl)cc1F (stereo unspecified)    YES
5           CN(C)c1ccc(Cc2ccc(N(C)C)cc2)cc1     NO

q: What did this assay record as the result for Nc1ccc(Nc2ccccc2)cc1 ?
a: YES

q: Lookup CC[C@H](C)C(=O)O[C@H]1C[C@@H](C)C=C2C=C[C@H](C)[C@H](CC[C@@H]3C[C@@H](O)CC(=O)O3)[C@H]21
a: YES

q: Lookup C=CCCCCCCCCC(=O)O
a: NO

q: Lookup Cc1c(-c2cccnc2)c2ccccc2n1CCCCC(=O)O
a: NO

q: Lookup COc1ccc(-n2nc(C(F)F)cc2-c2ccc(S(C)=O)cc2)cc1 (stereo unspecified)
a: NO

q: Lookup COc1ccc(/C=C/S(=O)(=O)NC(=O)c2ccc(C)cc2Cl)cc1
a: YES

---

read-out: Interferon-gamma inducible Protein 10 (IP10), CXCL10 (gene 3627); assay: BSK_hDFCGF_IP10: BioMAP Diversity Plus: hDFCGF Assay for Interferon-gamma inducible Protein 10 (IP10) Biomarker Activity (AID 2283053); conditions: primary human foreskin fibroblasts; actives raise or lower the signal
Activity calls are given as the source filed them. How the source made its calls: active means hit-call score of the fitted dose curve at least 0.9, where 1 is the maximum; inactive means score below 0.9.
Select the matching outcome among active, inactive

Worked set:
compound	label
Fc1ccccc1[C@@H](F)COC1CCC(Nc2ncnc3[nH]ncc23)CC1 (some centres not stated)	inactive
NC(=O)NO	inactive
CCCCC(CC)COC(=O)c1ccc(C(=O)OCC(CC)CCCC)cc1 (configuration not stated)	inactive
CC[C@H]1OC(=O)[C@H](C)[C@@H](O[C@H]2C[C@@](C)(OC)[C@@H](O)[C@H](C)O2)[C@H](C)[C@@H](O[C@@H]2O[C@H](C)C[C@H](N(C)C)[C@H]2O)[C@](C)(O)C[C@@H](C)C(=O)[C@H](C)[C@@H](O)[C@]1(C)O	inactive
COc1ccc(/C=C/S(=O)(=O)NC(=O)c2ccc(C)cc2Cl)cc1	inactive
CC1(C)C(=O)N(Br)C(=O)N1Br	inactive

q: What did this assay record as the result for COc1cccc(-c2ccc(/C=C\CN3CCCCCC3)cc2Cl)c1 ?
a: active

q: Lookup O=C(O)CC(O)C(=O)O (configuration not stated)
a: inactive

q: Lookup CC(=O)c1ccc2c(c1)[C@H](NC(=O)c1ccc(F)cc1)[C@@H](O)C(C)(C)O2
a: inactive

q: Lookup CC(C)(O)c1coc(S(=O)(=O)NC(=O)Nc2c3c(cc4c2CCC4)CCC3)c1
a: inactive

q: Lookup CC(C)=CCC/C(C)=C\CO
a: inactive

q: Lookup Cc1ccc(O)cc1
a: inactive

q: Lookup C=CC(=C)CCC=C(C)C
a: inactive

q: Lookup CC(=O)OC[C@H]1O[C@@](COC(C)=O)(O[C@H]2O[C@H](COC(C)=O)[C@@H](OC(C)=O)[C@H](OC(C)=O)[C@H]2OC(C)=O)[C@@H](OC(C)=O)[C@@H]1OC(C)=O
a: inactive

q: Lookup C1=CCCC=CCCC=CCC1
a: inactive

q: Lookup CNS(=O)(=O)c1cc(C(=O)N2CCC(CCN3C4CCC3CC(n3c(C)nc5ccccc53)C4)(c3cccc(F)c3)CC2)c(Cl)cc1F (configuration not stated)
a: inactive

q: Lookup CC/C(=C\C(=N/O)C(N)=O)C(C)[N+](=O)[O-] (configuration not stated)
a: inactive

q: Lookup CCc1cc(SCc2sc(-c3ccc(C(F)(F)F)cc3)nc2CN2CCN(c3ccc(OC)cc3)CC2)ccc1OCC(=O)O
a: active

q: Lookup CCCCCCCCO
a: inactive

q: Lookup COCCOCCOCCOC
a: inactive

q: Lookup Cc1ccc(S(=O)(=O)O)cc1C
a: inactive

q: Lookup O=C(CCCCCCCCc1cccnc1)N1CCC(C=C(c2ccccc2)c2ccccc2)CC1
a: active

---

read-out: Tissue plasminogen activator (tPA), PLAT (gene 5327); experiment: BSK_BE3C_tPA: BioMAP Diversity Plus: BE3C Assay for Tissue plasminogen activator (tPA) Biomarker Activity (AID 2283041); settings: primary human bronchial epithelial cells; actives raise or lower the signal;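 as to outcome: tPA level quantified by ELISA one day after compound addition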
Activity calls are given as the source filed them. The calls were made as follows: active = hit-call score of the fitted dose curve at least 0.9, where 1 is the maximum; inactive = score below 0.9.
Select the matching outcome among 1 = active, -1 = inactive

Worked set:
> print(dat)
                                   molecule  label
1                        CCCCCCc1ccc(O)cc1O      1
2  CCCN(C1CCN(C(=O)C2CCNCC2)CC1)[C@@H]1CCc2ccc(OC)cc2C1     -1
3  Nc1nc2ncc(CNc3ccc(C(=O)N[C@@H](CCC(=O)O)C(=O)O)cc3)nc2c(=O)[nH]1     -1
4                               O=C1CCCCCN1     -1
5                             Cc1ccc(N)cc1O     -1
6  O=C(CCCCCCCCc1cccnc1)N1CCC(C=C(c2ccccc2)c2ccccc2)CC1      1

q: What did this assay record as the result for CC1=CC(=O)CC(C)(C)C1 ?
a: -1

q: Lookup CC(C)CCCCCCOC(=O)c1ccc(C(=O)OCCCCCCC(C)C)c(C(=O)OCCCCCCC(C)C)c1
a: -1

q: Lookup CCCCC(CC)COC(=O)c1ccc(C(=O)OCC(CC)CCCC)cc1 (configuration not stated)
a: -1

q: Lookup C=CCCCCCCCCC(=O)O
a: -1

q: Lookup COc1ccc(/C=C/S(=O)(=O)NC(=O)c2ccc(C)cc2Cl)cc1
a: -1

q: Lookup CCCCCCCCCCCCCCCO
a: -1

---

read-out: Keratin 19 (KRT19), KRT19 (gene 3880); experiment: LTEA_HepaRG_KRT19: Life Technologies and Expression Analysis (LTEA) Assay for Keratin 19 (KRT19) using HepaRG (AID 2283512); conditions: mRNA level, 48 h; actives raise or lower the signal
Calls of active or inactive are those of the source. The calls were made as follows: active = hit-call score of the fitted dose curve at least 0.9, where 1 is the maximum; inactive = score below 0.9.
Select the matching outcome among active, inactive

Worked set:
compound	label
COCCOCCOCCOC	inactive
CCNc1ccccc1	inactive
CCCC(=O)OCC	inactive
O=C1CCC(N2C(=O)c3ccccc3C2=O)C(=O)N1 (stereo not given)	inactive
CC(C)=CCCC(C)=CC=O	inactive
CCCN(C1CCN(C(=O)C2CCNCC2)CC1)[C@@H]1CCc2ccc(OC)cc2C1	active
CC(C)=CCC/C(C)=C\CO	inactive
O=c1n(CC2CO2)c(=O)n(CC2CO2)c(=O)n1CC1CO1 (stereo not given)	inactive

q: What did this assay record as the result for O=C(O)c1cccc(N(Cc2cccnc2)c2ccc(OC(F)F)c(OC(F)F)c2)c1 ?
a: active

q: Lookup CC[C@H]1OC(=O)[C@H](C)[C@@H](O[C@H]2C[C@@](C)(OC)[C@@H](O)[C@H](C)O2)[C@H](C)[C@@H](O[C@@H]2O[C@H](C)C[C@H](N(C)C)[C@H]2O)[C@](C)(O)C[C@@H](C)C(=O)[C@H](C)[C@@H](O)[C@]1(C)O
a: inactive

q: Lookup O=C(NS(=O)(=O)/C=C/c1ccccc1)c1ccc(F)cc1Cl
a: inactive

q: Lookup Clc1nc(Cl)c(Cl)c(Cl)c1Cl
a: inactive

q: Lookup CC(=O)c1ccc2c(c1)[C@H](NC(=O)c1ccc(F)cc1)[C@@H](O)C(C)(C)O2
a: inactive

q: Lookup Cn1c(=O)c2c(ncn2C)n(C)c1=O
a: inactive

q: Lookup CC(C)c1cccc(C(C)C)c1N1C(=O)c2ccc(O)cc2C1=O
a: active

q: Lookup CN(C)c1ccc(N=NS(=O)(=O)O)cc1
a: active

---

read-out: Tumor necrosis factor receptor superfamily member 6 (Homo sapiens); assay: LTEA_HepaRG_FAS: Life Technologies and Expression Analysis (LTEA) Assay for Fas cell surface death receptor (FAS) using HepaRG (AID 2283447); conditions: mRNA level, 48 h; actives raise or lower the signal
The source made the active and inactive calls. Rule for the calls: active = hit-call score of the fitted dose curve at least 0.9, where 1 is the maximum; inactive = score below 0.9.
Select the matching outcome among active, inactive

Worked set:
> print(dat)
                                   compound     label
1  O=C(O)c1cccc(N(Cc2cccnc2)c2ccc(OC(F)F)c(OC(F)F)c2)c1  inactive
2  COc1ccc2sc(C(=O)Nc3nnn[nH]3)c(OC(C)C)c2c1    active
3  COc1ccc(/C=C/S(=O)(=O)NC(=O)c2ccc(C)cc2Cl)cc1  inactive
4  CCCCC(CC)COC(=O)c1ccc(C(=O)OCC(CC)CCCC)cc1 (stereo unspecified)  inactive
5                 CC1(C)C(=O)N(Br)C(=O)N1Br  inactive
6                          CCCCCCCCCCCCCCCO  inactive

q: What did this assay record as the result for CNS(=O)(=O)c1cc(C(=O)N2CCC(CCN3C4CCC3CC(n3c(C)nc5ccccc53)C4)(c3cccc(F)c3)CC2)c(Cl)cc1F (stereo unspecified) ?
a: inactive
